Procedure summary: folding enthalpy; higher = less favourable; fluorescence melt of hairpins on a sequencing array, two-state fit
Settings: sodium 0.088 M
folding enthalpy below -30 kcal/mol gives no; folding enthalpy at or above it gives yes.

>  <Seq>
GCCATCCGAAAGGAAGGC (((.(((....))).)))

>  <Assigned category>
no

$$$$
>  <Seq>
GCTAGGCGAAAGCCAAGC (((.(((....))).)))

>  <Assigned category>
no

$$$$
>  <Seq>
GGTTTTGGAAACAAAACC (((((((....)))))))

>  <Assigned category>
no

$$$$
>  <Seq>
GCGTAGCCACGC ((((....))))

>  <Assigned category>
yes

$$$$
>  <Seq>
GAGAAACGAAAGTTCTC (((.(((....))))))

>  <Assigned category>
yes

$$$$

Origin of values: the array DNA melting data of Ke et al. (doi:10.1101/2024.01.08.574731)
